B1: CPEB3 Ribozyme (parent)
chain: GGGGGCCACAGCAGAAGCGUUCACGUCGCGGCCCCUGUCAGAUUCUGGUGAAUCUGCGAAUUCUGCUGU

Variants of: B1
Test: self-cleavage, relative activity (ratio to wild type); higher = more cleavage; co-transcriptional
# thresholds on self-cleavage define classes: low: < 0.3; intermediate: ≥ 0.3 and < 0.8; high: ≥ 0.8

Previously resolved entries follow.
Mutation Descriptor: G5C G56C
Discrete Label: low
--
Mutation Descriptor: A52C G68C
Discrete Label: high
--
Mutation Descriptor: C34A C66A
Discrete Label: intermediate
--
Mutation Descriptor: A59G G68C
Discrete Label: high
--
Mutation Descriptor: C29A A51C
Discrete Label: intermediate

Just checking, what class would you give G5C C45A here? low

Ok, now U64A U69C high

Ok, now A16U C32A intermediate

Ok, now G2A G31U low

Ok, now A23G A59G high

Ok, now U21G G68U intermediate

Ok, now G50C G56C intermediate

Ok, now A42G G58U high

Ok, now C18U U53A intermediate
